# assayed.system: yeast urease activity (Cryptococcus neoformans, UniProt O13465)
# Construct: endogenous in cells; host or cells: Cryptococcus neoformans H99 (ATCC 208821) yeasts in Christensen urea broth
# Sequence (O13465 whole entry): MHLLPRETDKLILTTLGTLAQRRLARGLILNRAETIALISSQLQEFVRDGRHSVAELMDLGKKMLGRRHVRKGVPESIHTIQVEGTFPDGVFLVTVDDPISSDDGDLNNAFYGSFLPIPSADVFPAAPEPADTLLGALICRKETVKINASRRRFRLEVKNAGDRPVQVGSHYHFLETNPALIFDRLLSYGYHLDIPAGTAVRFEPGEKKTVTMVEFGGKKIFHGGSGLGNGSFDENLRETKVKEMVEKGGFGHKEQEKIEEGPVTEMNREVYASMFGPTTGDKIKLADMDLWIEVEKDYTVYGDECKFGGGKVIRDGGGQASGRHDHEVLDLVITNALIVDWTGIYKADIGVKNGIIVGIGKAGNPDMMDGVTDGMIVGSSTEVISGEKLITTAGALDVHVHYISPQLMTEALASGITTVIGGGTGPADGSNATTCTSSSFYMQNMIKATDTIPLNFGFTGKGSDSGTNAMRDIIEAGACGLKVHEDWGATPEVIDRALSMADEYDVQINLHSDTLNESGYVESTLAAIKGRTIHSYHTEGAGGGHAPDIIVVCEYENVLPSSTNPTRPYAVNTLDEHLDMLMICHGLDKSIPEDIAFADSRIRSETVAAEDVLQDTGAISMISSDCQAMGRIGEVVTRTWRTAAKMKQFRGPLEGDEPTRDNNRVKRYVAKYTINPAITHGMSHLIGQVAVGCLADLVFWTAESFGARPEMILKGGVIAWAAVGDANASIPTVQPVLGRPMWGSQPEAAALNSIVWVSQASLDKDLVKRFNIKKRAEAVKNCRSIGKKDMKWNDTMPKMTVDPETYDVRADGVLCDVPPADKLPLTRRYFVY
# test.method.notes: Inhibition of yeast urease activity in urea (Christensen) medium, colour change (MICure)
# Assay type: cell-based
# condition.set: BSU series; 100% inhibition of yeast urease activity in urea medium
Lab note: anything with MICURE below 0.5 mg/L is marked true; values at 0.5 mg/L or higher are marked false.

• O=C(NC(=[Se])Nc1cccc(Cl)c1)c1ccccc1 [BSU7] = true
• O=C(NC(=[Se])Nc1ccccc1[N+](=O)[O-])c1ccccc1 [BSU10] = false
• O=C(NC(=[Se])Nc1ccc(Br)cc1)c1ccccc1 [BSU8] = false

Answer whether the molecule O=C(NC(=[Se])Nc1cccc(Br)c1)c1ccccc1 [BSU9] has MICURE strictly less than 0.5 mg/L
true

Answer whether the molecule O=C(NC(=[Se])Nc1cccc([N+](=O)[O-])c1)c1ccccc1 [BSU11] has MICURE strictly less than 0.5 mg/L
false

* * *

# System: C. neoformans H99
# test.method.notes: Minimum fungicidal concentration by subculturing after MIC reading
# Type: cell-based
# condition.set: Cryptococcus neoformans, H99, Table S1; urea medium line
# Procedure: After MIC readings, the MFC values were determined by subculturing, at 35 °C for 48 h, of all concentrations that inhibited the fungal growth; and then MFC was defined as the lowest concentration of the compound capable of reducing ≥99% viability of the initial fungal inoculum. ,
quantity.measured: MFC (µg/mL)
Give the value in µg/mL but do not write µg/mL after it.

Example entries begin here.
• O=C(NC(=[Se])Nc1ccccc1[N+](=O)[O-])c1ccccc1 [BSU10] = 2
• COc1cccc(NC(=[Se])NC(=O)c2ccccc2)c1 [BSU5] = 0.25
• O=C(NC(=[Se])Nc1ccc(Cl)cc1)c1ccccc1 [BSU6] = 16
• Cc1ccc(NC(=[Se])NC(=O)c2ccccc2)cc1 [BSU2] = 1
• O=C(NC(=[Se])Nc1cccc(Br)c1)c1ccccc1 [BSU9] = 0.5

Quick one: MFC of O=C(NC(=[Se])Nc1ccc(Br)cc1)c1ccccc1 [BSU8] ?
0.5

Quick one: MFC of O=C(NC(=[Se])Nc1cccc([N+](=O)[O-])c1)c1ccccc1 [BSU11] ?
1

Quick one: MFC of O=C(NC(=[Se])Nc1cccc(Cl)c1)c1ccccc1 [BSU7] ?
0.25

Quick one: MFC of COc1ccccc1NC(=[Se])NC(=O)c1ccccc1 [BSU4] ?
0.5

* * *

# Test system: C. neoformans H99
# test.method.notes: Broth microdilution antifungal assay (MIC) in RPMI or urea medium
# Type: cell-based
# condition.set: Cryptococcus neoformans, H99, BTU series; 50% inhibition of fungal growth, urea medium; read-out: MIC urea
molecules and their reported MIC
Give the value in mg/L but do not write mg/L after it.

* COc1ccccc1NC(=S)NC(=O)c1ccccc1 | 64
* COc1cccc(NC(=S)NC(=O)c2ccccc2)c1 | 4

// below: MIC requested for another molecule
Quick one: MIC of `CC(C)(C)c1ccc(NC(=S)NC(=O)c2ccccc2)cc1` ?
1

* * *

molecules and their reported MIC
# System: C. neoformans H99
# test.method.notes: Broth microdilution antifungal assay (MIC) in RPMI or urea medium
# Format: cell-based
# condition.set: Cryptococcus neoformans, H99, BTU series; 50% inhibition of fungal growth, urea medium; read-out: MIC urea
Give the value in µg/mL but do not write µg/mL after it.

Quick one: MIC of `Cc1ccc(NC(=S)NC(=O)c2ccccc2)cc1` ?
32

Quick one: MIC of `O=C(NC(=S)Nc1cccc(Br)c1)c1ccccc1` ?
32

Quick one: MIC of `O=C(NC(=S)Nc1ccc(Cl)cc1)c1ccccc1` ?
1

Quick one: MIC of `O=C(NC(=S)Nc1ccc(Br)cc1)c1ccccc1` ?
32

Quick one: MIC of `O=C(NC(=S)Nc1ccccc1)c1ccccc1` ?
32

Quick one: MIC of `O=C(NC(=S)Nc1cccc(Cl)c1)c1ccccc1` ?
4

* * *

# Tested on: C. neoformans H99
# test.method.notes: Broth microdilution antifungal assay (MIC) in RPMI or urea medium
# Assay type: cell-based
# condition.set: Cryptococcus neoformans, H99, 48 h, read-out: MIC RPMI, BSU series; 50% inhibition of fungal growth, RPMI medium, 35 °C, 48 h
quantity.measured: MIC

Example entries begin here.
* COc1ccccc1NC(=[Se])NC(=O)c1ccccc1 [BSU4] | 8 µg/mL
* O=C(NC(=[Se])Nc1ccc(Br)cc1)c1ccccc1 [BSU8] | 128 µg/mL
* O=C(NC(=[Se])Nc1cccc([N+](=O)[O-])c1)c1ccccc1 [BSU11] | 32 µg/mL
* COc1cccc(NC(=[Se])NC(=O)c2ccccc2)c1 [BSU5] | 1 µg/mL
* CC(C)(C)c1ccc(NC(=[Se])NC(=O)c2ccccc2)cc1 [BSU3] | > 128 µg/mL
* O=C(NC(=[Se])Nc1ccccc1[N+](=O)[O-])c1ccccc1 [BSU10] | 8 µg/mL
* O=C(NC(=[Se])Nc1cccc(Br)c1)c1ccccc1 [BSU9] | 4 µg/mL
* Cc1ccc(NC(=[Se])NC(=O)c2ccccc2)cc1 [BSU2] | 16 µg/mL

Quick one: MIC of O=C(NC(=[Se])Nc1ccc(Cl)cc1)c1ccccc1 [BSU6] ?
16 µg/mL

Quick one: MIC of O=C(NC(=[Se])Nc1cccc(Cl)c1)c1ccccc1 [BSU7] ?
8 µg/mL

* * *

compounds and their reported pIC50
# assayed.system: C. neoformans urease (Cryptococcus neoformans, UniProt O13465)
# Construct: endogenous in cells; dialysed and lyophilised soluble fraction (total protein)
# Sequence (O13465 whole entry): as above
# test.method.notes: Urease activity in crude protein extract, indophenol method
# condition.set: ureIC50, BSU series
When answering, recall that pIC50 equals minus log10 of the concentration in mol/L, and write that number alone.

Example entries begin here.
• COc1cccc(NC(=[Se])NC(=O)c2ccccc2)c1 = 7.86
• O=C(NC(=[Se])Nc1ccccc1)c1ccccc1 = 8.31
• O=C(NC(=[Se])Nc1ccc(Cl)cc1)c1ccccc1 = 8.52

// below: pIC50 requested for another compound
Quick one: pIC50 of `Cc1ccc(NC(=[Se])NC(=O)c2ccccc2)cc1` ?
8.97

* * *

# assayed.system: yeast urease activity (Cryptococcus neoformans)
# Construct: endogenous in cells; host or cells: Cryptococcus neoformans H99 (ATCC 208821) yeasts in Christensen urea broth
# test.method.notes: Inhibition of yeast urease activity in urea (Christensen) medium, colour change (MICure)
# Type: cell-based
# condition.set: Table S1; urea medium; 100% inhibition of yeast urease activity
quantity.measured: MICURE (mg/L)
Give the value in mg/L but do not write mg/L after it.

Example entries begin here.
- O=C(NC(=S)Nc1cccc(Br)c1)c1ccccc1 [BTU9]: 4
- O=C(NC(=[Se])Nc1ccccc1)c1ccccc1 [BSU1]: 0.06
- CC(C)(C)c1ccc(NC(=S)NC(=O)c2ccccc2)cc1 [BTU3]: 0.5

Quick one: MICURE of O=C(NC(=[Se])Nc1cccc(Cl)c1)c1ccccc1 [BSU7] ?
0.06

Quick one: MICURE of COc1cccc(NC(=[Se])NC(=O)c2ccccc2)c1 [BSU5] ?
0.12

Quick one: MICURE of O=C(NC(=[Se])Nc1ccccc1[N+](=O)[O-])c1ccccc1 [BSU10] ?
1

Quick one: MICURE of O=C(NC(=[Se])Nc1ccc(Cl)cc1)c1ccccc1 [BSU6] ?
8

Quick one: MICURE of O=C(NC(=[Se])Nc1cccc([N+](=O)[O-])c1)c1ccccc1 [BSU11] ?
1

Quick one: MICURE of O=C(NC(=S)Nc1cccc(Cl)c1)c1ccccc1 [BTU7] ?
2

* * *

# assayed.system: yeast urease activity (Cryptococcus neoformans)
# Construct: endogenous in cells; host or cells: Cryptococcus neoformans H99 (ATCC 208821) yeasts in Christensen urea broth
# test.method.notes: Inhibition of yeast urease activity in urea (Christensen) medium, colour change (MICure)
# Type: cell-based
# condition.set: BTU series; 100% inhibition of yeast urease activity in urea medium
quantity.measured: MICURE (mg/L)
Give the value in mg/L but do not write mg/L after it.

Example entries begin here.
• COc1ccccc1NC(=S)NC(=O)c1ccccc1 [BTU4] = 32
• CC(C)(C)c1ccc(NC(=S)NC(=O)c2ccccc2)cc1 [BTU3] = 0.5
• COc1cccc(NC(=S)NC(=O)c2ccccc2)c1 [BTU5] = 4
• O=C(NC(=S)Nc1ccccc1)c1ccccc1 [BTU1] = 32

// below: MICURE requested for another compound
Quick one: MICURE of O=C(NC(=S)Nc1cccc(Br)c1)c1ccccc1 [BTU9] ?
2

* * *

# Tested on: C. neoformans H99
# test.method.notes: Broth microdilution antifungal assay (MIC) in RPMI or urea medium
# Type: cell-based
# condition.set: Cryptococcus neoformans, H99, Table S1; urea medium; C. neoformans H99
quantity.measured: log10 of MIC (log10 of the value in µg/mL)
The common logarithm of MIC in µg/mL is what is listed.

• O=C(NC(=[Se])Nc1cccc(Br)c1)c1ccccc1 = -0.92
• O=C(NC(=[Se])Nc1ccc(Br)cc1)c1ccccc1 = -0.30
• COc1ccccc1NC(=[Se])NC(=O)c1ccccc1 = -0.30
• COc1cccc(NC(=[Se])NC(=O)c2ccccc2)c1 = -0.60

Quick one: log10 of MIC of `O=C(NC(=[Se])Nc1ccccc1[N+](=O)[O-])c1ccccc1` ?
0.00

Quick one: log10 of MIC of `O=C(NC(=[Se])Nc1cccc(Cl)c1)c1ccccc1` ?
-0.92
